Target: T1, human MSLN-R3 protein (Met487-Ser606 of NCBI AAH09272.1) expressed on HEK293T-hMSLN-R3 cells (human, UniProt Q13421 487-606)
T1 construct: also called Region3
T1 sequence (Q13421 495-614): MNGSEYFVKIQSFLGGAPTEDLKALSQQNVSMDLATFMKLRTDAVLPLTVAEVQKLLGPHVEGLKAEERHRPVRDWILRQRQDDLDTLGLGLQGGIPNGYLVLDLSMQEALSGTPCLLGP
Assay: FACS on HEK293T-hMSLN-R3 cells;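 further: flow cytometry binding of test chimeric antibodies to cells after 2 h incubation on ice, with values derived from the mean fluorescence intensity of the cells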
Reported values of EC50 for individual entries

# binder, EC50 [nM]
measured = [
    ("S009-F7.23.19 (antibody, human IgG1, kappa, V domains shown, human-murine chimeric antibody, human IgG1/kappa constant regions) VH: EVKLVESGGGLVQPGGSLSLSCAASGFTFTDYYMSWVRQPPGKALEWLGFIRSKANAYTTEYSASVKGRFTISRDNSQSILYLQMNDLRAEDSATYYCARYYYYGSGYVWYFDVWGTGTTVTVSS VL: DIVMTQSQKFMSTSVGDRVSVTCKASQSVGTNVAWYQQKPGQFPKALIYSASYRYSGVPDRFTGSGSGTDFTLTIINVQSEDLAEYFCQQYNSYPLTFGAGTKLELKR", 0.05),
    ("S009-F7.6.17 (antibody, human IgG1, kappa, V domains shown, human-murine chimeric antibody, human IgG1/kappa constant regions) VH: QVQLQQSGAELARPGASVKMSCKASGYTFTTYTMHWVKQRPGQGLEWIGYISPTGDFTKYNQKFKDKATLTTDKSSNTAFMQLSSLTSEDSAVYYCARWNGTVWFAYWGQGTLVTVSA VL: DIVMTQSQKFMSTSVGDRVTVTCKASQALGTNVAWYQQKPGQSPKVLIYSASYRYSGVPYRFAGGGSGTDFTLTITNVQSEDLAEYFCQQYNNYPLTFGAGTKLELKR", 0.31),
]
